Test System: EGFR L858R/T790M/C797S mutant (Homo sapiens (Human), UniProt P00533, C797S/L858R/T790M)
Sequence (P00533 25-1210 T790M/C797S/L858R): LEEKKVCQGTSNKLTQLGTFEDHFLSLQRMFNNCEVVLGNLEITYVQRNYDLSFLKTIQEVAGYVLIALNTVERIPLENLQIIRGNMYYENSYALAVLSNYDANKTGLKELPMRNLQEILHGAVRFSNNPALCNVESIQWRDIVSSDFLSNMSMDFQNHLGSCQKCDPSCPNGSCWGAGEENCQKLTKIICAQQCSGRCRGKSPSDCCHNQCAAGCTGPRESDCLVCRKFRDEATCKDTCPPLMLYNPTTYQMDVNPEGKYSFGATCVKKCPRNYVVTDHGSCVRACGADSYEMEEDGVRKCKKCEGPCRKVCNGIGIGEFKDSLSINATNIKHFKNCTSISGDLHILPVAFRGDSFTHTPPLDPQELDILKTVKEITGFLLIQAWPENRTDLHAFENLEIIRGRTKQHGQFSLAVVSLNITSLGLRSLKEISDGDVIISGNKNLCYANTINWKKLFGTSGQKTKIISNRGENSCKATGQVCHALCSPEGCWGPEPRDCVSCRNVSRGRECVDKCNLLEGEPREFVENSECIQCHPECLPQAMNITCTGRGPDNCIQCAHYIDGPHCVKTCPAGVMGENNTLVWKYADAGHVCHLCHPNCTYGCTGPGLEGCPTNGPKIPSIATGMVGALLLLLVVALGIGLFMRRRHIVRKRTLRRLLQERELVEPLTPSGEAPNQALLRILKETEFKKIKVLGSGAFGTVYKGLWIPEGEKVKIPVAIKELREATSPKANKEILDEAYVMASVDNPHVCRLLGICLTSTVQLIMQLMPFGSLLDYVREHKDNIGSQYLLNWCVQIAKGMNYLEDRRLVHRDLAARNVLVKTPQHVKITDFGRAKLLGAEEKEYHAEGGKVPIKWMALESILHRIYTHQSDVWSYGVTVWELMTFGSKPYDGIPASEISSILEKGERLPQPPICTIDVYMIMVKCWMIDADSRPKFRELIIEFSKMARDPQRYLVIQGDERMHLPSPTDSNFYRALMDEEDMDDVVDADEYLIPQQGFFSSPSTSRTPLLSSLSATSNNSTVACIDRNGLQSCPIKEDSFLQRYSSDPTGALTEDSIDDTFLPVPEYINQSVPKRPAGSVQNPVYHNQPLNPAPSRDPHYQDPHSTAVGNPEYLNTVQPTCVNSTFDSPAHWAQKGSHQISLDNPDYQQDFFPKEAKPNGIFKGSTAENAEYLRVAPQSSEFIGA
Assay Remarks: HotSpot radiometric kinase assay, EGFR L858R/T790M/C797S mutant
Format: biochemical
Condition Context: 10 μM ATP
Metric Name: IC50 (nM)
Express it in nM; write the number only.

Reference set (3 entries):
* CCN1Cc2c(c(C)nn2CCO)/C=C/c2n[nH]c3ccc(cc23)-c2cnn(C)c2O[C@@H](C)C1 | 0.24
* Cc1c2c(nn1C)OCCCOc1c(cnn1C)-c1ccc3[nH]nc(c3c1)/C=C/2 | 27.2
* Cc1c2c(nn1[C@H]1CCNC[C@@H]1O)OCCCOc1c(cnn1C)-c1ccc3[nH]nc(c3c1)/C=C/2 (racemic) | 7.42

In the following, a different molecule is considered.
# input Print EGFR L858R/T790M/C797S mutant (Homo sapiens (Human), UniProt P00533, C797S/L858R/T790M) IC50 for CCOc1nn([C@H](C)CO)c2c1/C=C/c1n[nH]c3ccc(cc13)-c1cnn(C)c1O[C@@H](C)CN(C)C2 .
# output 1.32

* * *

# IC50 per record follows
Test System: EGFR L858R mutant (Homo sapiens (Human), UniProt P00533, L858R)
Sequence (P00533 25-1210 L858R): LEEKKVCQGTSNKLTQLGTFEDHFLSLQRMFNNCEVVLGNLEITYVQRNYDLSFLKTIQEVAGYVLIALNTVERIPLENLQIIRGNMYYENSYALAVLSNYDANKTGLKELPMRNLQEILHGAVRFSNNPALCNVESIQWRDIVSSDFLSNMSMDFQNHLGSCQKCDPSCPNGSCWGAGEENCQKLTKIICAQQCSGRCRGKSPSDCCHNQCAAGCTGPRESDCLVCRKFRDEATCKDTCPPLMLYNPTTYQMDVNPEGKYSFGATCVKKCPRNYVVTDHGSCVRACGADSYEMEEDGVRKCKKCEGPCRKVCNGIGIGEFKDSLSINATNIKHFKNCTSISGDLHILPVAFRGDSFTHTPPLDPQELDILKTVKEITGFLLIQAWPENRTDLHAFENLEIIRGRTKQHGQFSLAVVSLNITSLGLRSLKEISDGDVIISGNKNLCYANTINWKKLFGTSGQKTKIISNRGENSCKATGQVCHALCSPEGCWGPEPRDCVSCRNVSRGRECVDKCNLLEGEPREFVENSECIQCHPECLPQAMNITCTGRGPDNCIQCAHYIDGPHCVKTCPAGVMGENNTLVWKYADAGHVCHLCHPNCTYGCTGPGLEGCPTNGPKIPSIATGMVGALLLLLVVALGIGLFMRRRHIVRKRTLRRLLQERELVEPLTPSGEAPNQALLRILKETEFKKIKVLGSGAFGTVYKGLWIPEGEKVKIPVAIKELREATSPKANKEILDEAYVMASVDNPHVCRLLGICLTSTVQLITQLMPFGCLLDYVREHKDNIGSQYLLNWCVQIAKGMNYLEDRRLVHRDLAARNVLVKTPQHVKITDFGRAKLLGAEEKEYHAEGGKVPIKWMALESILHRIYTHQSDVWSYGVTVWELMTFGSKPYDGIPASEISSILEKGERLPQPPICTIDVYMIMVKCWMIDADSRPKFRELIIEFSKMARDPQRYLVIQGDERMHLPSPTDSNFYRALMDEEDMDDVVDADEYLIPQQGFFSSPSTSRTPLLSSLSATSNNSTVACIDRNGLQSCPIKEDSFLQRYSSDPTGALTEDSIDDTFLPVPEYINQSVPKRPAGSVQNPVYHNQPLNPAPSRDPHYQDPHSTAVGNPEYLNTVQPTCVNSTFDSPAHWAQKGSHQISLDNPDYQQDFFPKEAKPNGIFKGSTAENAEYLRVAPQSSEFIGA
Assay Remarks: HotSpot radiometric kinase assay, EGFR L858R mutant
Type: biochemical
Condition Context: 10 μM ATP
Express it in nM; write the number only.

Reference set (5 entries):
• CCn1ncc2c1O[C@@H](C)CN(C)Cc1c(c(OC(C)C)nn1CCO)/C=C/c1n[nH]c3ccc-2cc13 = 2.01
• CCOc1nn(CCO)c2c1/C=C/c1n[nH]c3ccc(cc13)-c1cnn(C)c1O[C@@H](CC)CN(C)C2 = 4.55
• Cc1c2c(nn1CCN1CCOCC1)CN(C)C[C@H](C)Oc1c(cnn1C)-c1ccc3[nH]nc(c3c1)/C=C/2 = 11.4
• Cc1nn(CC(C)(C)O)c2c1/C=C/c1n[nH]c3ccc(cc13)-c1cnn(C)c1OCCCO2 = 268
• CCc1nn(C)c2c1/C=C/c1n[nH]c3ccc(cc13)-c1cnn(C)c1O[C@@H](C)COC2 = 182

# input Answer with reported IC50 of CCN1Cc2nn(C)c(C)c2/C=C/c2n[nH]c3ccc(cc23)-c2cnn(C)c2O[C@@H](C)C1
# output 7.63

* * *

Test System: EGFR Δ746-750/C797S mutant (Homo sapiens (Human), UniProt P00533, C797S/DEL746-750)
Sequence (P00533 other isoform, or with tags, fused parts or gaps C797S/del 1-668/del 746-750 limits assumed): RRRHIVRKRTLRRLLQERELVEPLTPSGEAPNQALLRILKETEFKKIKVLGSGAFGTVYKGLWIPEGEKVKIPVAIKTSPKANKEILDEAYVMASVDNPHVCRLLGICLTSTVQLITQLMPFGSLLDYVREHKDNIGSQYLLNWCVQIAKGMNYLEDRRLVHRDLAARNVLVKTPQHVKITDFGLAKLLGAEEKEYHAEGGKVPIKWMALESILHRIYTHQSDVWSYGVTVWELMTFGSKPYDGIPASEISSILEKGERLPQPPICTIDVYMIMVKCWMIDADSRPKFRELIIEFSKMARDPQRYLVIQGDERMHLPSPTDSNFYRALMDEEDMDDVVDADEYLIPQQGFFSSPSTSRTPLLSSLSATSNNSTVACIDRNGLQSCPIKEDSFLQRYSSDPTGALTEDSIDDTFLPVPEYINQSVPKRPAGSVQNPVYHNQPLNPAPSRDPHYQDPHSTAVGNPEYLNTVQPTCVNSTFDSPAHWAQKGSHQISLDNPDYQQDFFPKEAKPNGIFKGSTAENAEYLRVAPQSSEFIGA
Assay Remarks: HotSpot radiometric kinase assay, EGFR Δ746-750/C797S mutant
Format: biochemical
Condition Context: 10 μM ATP
Rule: IC50 below 40 nM gives 1 (yes). Equal to or above 40 nM gives 0 (no).

Solved cases (4 shown):
• Cc1nn(C)c2c1/C=C/c1n[nH]c3ccc(cc13)-c1cnn(C)c1O[C@H]1CCCN(C2)C1 = 1 (yes)
• C[C@H]1CN(C)Cc2c(c(OC3CN(S(C)(=O)=O)C3)nn2C)/C=C/c2n[nH]c3ccc(cc23)-c2cnn(C)c2O1 = 1 (yes)
• CCc1nn(CCN2CC[C@H](O)C2)c2c1/C=C/c1n[nH]c3ccc(cc13)-c1cnn(C)c1OCCCO2 = 0 (no)
• C[C@H]1CN(C)Cc2onc(C3CC3)c2/C=C/c2n[nH]c3ccc(cc23)-c2cnn(C)c2O1 = 0 (no)

# input Just wondering, is IC50 of Cc1c2c(nn1C)/C=C/c1n[nH]c3ccc(cc13)-c1cnn(C)c1O[C@@H](C)CN(C(C)C)C2 below 40 nM?
# output 1 (yes)

# input Just wondering, is IC50 of Cc1c2c(nn1C[C@@H](C)O)CN(C)C[C@H](C)Oc1c(cnn1C)-c1ccc3[nH]nc(c3c1)/C=C/2 below 40 nM?
# output 1 (yes)

# input Just wondering, is IC50 of CCOc1nn(C)c2c1/C=C/c1n[nH]c3cc(F)c(cc13)-c1cnn(C)c1OC1CCCN(C2)C1 (stereo in doubt) below 40 nM?
# output 1 (yes)

* * *

Here's what we have: IC50 numbers for EGFR WT (Homo sapiens (Human), UniProt P00533).
Express it in nM; write the number only.

- CCOc1nn(CCO)c2c1/C=C/c1n[nH]c3ccc(cc13)-c1c(C)nn(C)c1OC[C@H](C)N(C1CC1)C2 [Example 205]: 58.3
- CCN1Cc2c(c(OC(C)C)nn2CC(N)=O)/C=C/c2n[nH]c3ccc(cc23)-c2cnn(C)c2O[C@@H](C)C1 [Example 232]: 0.41
- CCOc1nn(CCO)c2c1/C=C/c1n[nH]c3ccc(cc13)-c1cnn(C)c1O[C@H](C)CNC2 [Example 197]: 194
- CN(C)Cc1ccc2c(c1)O[C@@H]1CCN(CCOc3c(cnn3C)-c3ccc4[nH]nc(c4c3)/C=C/2)C1=O [Example 94]: 44.1

# input Print EGFR WT (Homo sapiens (Human), UniProt P00533) IC50 for CCc1nn(CCN2CC[C@H](O)C2)c2c1/C=C/c1n[nH]c3ccc(cc13)-c1cnn(C)c1OCCCO2 [Example 69] .
# output 405

* * *

# log10 of IC50 per record follows
Test System: EGFR L858R/T790M/C797S mutant (Homo sapiens (Human), UniProt P00533, C797S/L858R/T790M)
Assay Remarks: HotSpot radiometric kinase assay, EGFR L858R/T790M/C797S mutant
Condition Context: 10 μM ATP
Record value = log10 of IC50 given in nM.

Reference set (5 entries):
* CC(C)Oc1nn(CCO)c2c1/C=C/c1n[nH]c3ccc(cc13)-c1cnn(C3CC3)c1O[C@@H](C)CN(C)C2 | 0.65
* Cc1nn(C)c2c1/C=C/c1n[nH]c3ccc(cc13)-c1cnn(C)c1O[C@@H](C)CN(C)[C@@H]2C (single isomer, unassigned) | -0.15
* C[C@H]1CN(C)Cc2c(c(C#N)nn2C)/C=C/c2n[nH]c3ccc(cc23)-c2cnn(C)c2O1 | -0.13
* Cc1nn(CCO)c2c1/C=C/c1n[nH]c3ccc(cc13)-c1cnn(C)c1CN(C)CCO2 | 0.05
* CC(C)Oc1nn(CCO)c2c1/C=C/c1n[nH]c3ccc(cc13)-c1cnn(C)c1O[C@H](C)CN(C1CC1)C2 | -0.38

# input Answer with reported log10 of IC50 of Cc1nn(C)c2c1/C=C/c1n[nH]c3ccc(cc13)-c1cnn(C)c1O[C@@H](C)CN(C1COC1)C2
# output 0.11

* * *

Here's what we have: IC50 numbers for ALK (Homo sapiens (Human)).
Express it in nM; write the number only.

- Cc1nn(C)c2c1/C=C/c1n[nH]c3ccc(cc13)-c1cnn(C)c1O[C@@H](C)CN(C)C2 [Example 120]: 1.82
- CCOc1nn(CCO)c2c1/C=C/c1n[nH]c3ccc(cc13)-c1cnn(C)c1O[C@@H](C)CN(C)C2 [Example 119]: 1.05
- Cc1nn(C)c2c1/C=C/c1n[nH]c3ccc(cc13)-c1cnn(C)c1OCCCO2 [Ex. 8]: 2.09
- Cn1nc(C#N)c2c1COCCOc1c(cnn1C)-c1ccc3[nH]nc(c3c1)/C=C/2 [Example 302]: 19.9
- Cc1onc2c1/C=C/c1n[nH]c3ccc(cc13)-c1cnn(C)c1OCCOC2 [Example 320]: 32.2
- C[C@H]1CN(C)Cc2c(c(C#N)nn2C)/C=C/c2n[nH]c3ccc(cc23)-c2cnn(C)c2O1 [Example 159]: 3.72
- CCOc1nn([C@@H](C)CO)c2c1/C=C/c1n[nH]c3cc(F)c(cc13)-c1cnn(C)c1O[C@@H](C)CN(CC)C2 [Example 215]: 2.58

In the following, a different compound is considered.
# input Answer with reported IC50 of CC(C)Oc1nn([C@@H](C)CO)c2c1/C=C/c1n[nH]c3cc(F)c(cc13)-c1cnn(C)c1O[C@@H](C)CN(C)C2 [Example 200]
# output 1.49

* * *

Test System: EGFR L858R/T790M mutant (Homo sapiens (Human), UniProt P00533, L858R/T790M)
Sequence (P00533 25-1210 T790M/L858R): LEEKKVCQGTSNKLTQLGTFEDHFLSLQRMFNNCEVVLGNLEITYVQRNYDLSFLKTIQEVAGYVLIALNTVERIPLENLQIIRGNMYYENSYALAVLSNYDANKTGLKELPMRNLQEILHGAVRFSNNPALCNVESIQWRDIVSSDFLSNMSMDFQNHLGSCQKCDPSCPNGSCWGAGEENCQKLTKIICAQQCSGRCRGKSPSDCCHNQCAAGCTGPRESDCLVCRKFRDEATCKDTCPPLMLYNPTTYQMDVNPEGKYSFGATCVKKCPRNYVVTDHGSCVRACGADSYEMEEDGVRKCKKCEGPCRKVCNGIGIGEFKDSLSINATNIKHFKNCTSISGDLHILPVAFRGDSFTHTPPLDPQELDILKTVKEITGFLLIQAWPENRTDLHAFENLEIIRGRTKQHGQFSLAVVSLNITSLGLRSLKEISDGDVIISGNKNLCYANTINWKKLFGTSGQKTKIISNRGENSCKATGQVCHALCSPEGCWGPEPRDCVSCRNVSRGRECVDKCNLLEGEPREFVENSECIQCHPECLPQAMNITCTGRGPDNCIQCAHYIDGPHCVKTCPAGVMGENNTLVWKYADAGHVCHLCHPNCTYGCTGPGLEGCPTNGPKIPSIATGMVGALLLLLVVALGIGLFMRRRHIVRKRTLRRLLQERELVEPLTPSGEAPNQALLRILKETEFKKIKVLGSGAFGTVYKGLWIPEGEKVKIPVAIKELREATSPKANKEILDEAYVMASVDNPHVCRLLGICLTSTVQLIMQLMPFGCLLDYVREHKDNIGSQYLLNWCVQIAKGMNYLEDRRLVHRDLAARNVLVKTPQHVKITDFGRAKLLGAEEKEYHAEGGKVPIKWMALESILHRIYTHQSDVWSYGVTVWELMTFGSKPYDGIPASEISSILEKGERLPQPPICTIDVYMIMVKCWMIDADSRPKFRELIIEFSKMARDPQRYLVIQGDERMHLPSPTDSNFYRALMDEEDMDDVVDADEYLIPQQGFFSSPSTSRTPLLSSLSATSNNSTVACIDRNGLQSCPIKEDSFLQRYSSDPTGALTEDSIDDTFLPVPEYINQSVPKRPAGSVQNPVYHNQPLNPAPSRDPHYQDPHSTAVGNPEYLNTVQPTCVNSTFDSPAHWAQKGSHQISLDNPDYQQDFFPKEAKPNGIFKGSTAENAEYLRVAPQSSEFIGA
Assay Remarks: HotSpot radiometric kinase assay, EGFR L858R/T790M mutant
Condition Context: 10 μM ATP
Metric Name: IC50 (nM)
Express it in nM; write the number only.

Reference set (5 entries):
• CCOc1ccc2c(n1)/C=C/c1n[nH]c3ccc(cc13)-c1cnn(C)c1O[C@@H](C)CN(C)C2 [Ex. 267] = 8.31
• Cc1nn(C)c2c1/C=C/c1n[nH]c3ccc(cc13)-c1cnn(C)c1O[C@@H](C)CN(C)C2 [Example 120] = 0.33
• C[C@H]1CN(C)Cc2c(c(OC3CCN(S(C)(=O)=O)CC3)nn2C)/C=C/c2n[nH]c3ccc(cc23)-c2cnn(C)c2O1 [Example 143] = 1.58
• CCOc1nn(CCO)c2c1/C=C/c1n[nH]c3ccc(cc13)-c1cnn(C)c1O[C@@H](C)CN(C(C)C)C2 [Example 151] = 0.48
• Cn1ncc2c1OCCN1CC[C@@H](Oc3ccc(C(C)(C)O)cc3/C=C/c3n[nH]c4ccc-2cc34)C1=O [Example 135] = 20

# input Answer with reported IC50 of C[C@H]1CN(C)Cc2c(c(OC3CCN(S(C)(=O)=O)CC3)nn2CCO)/C=C/c2n[nH]c3ccc(cc23)-c2cnn(C)c2O1 [Example 175]
# output 2.06

# input Answer with reported IC50 of C[C@H]1CN(C)Cc2onc(C3CC3)c2/C=C/c2n[nH]c3ccc(cc23)-c2cnn(C)c2O1 [Example 173]
# output 45.5

# input Answer with reported IC50 of COCc1nn(C)c2c1/C=C/c1n[nH]c3ccc(cc13)-c1cnn(C)c1OCCCO2 [Ex. 11]
# output 153

# input Answer with reported IC50 of CC(C)Oc1nn(CCO)c2c1/C=C/c1n[nH]c3cc(F)c(cc13)-c1cnn(C)c1O[C@H](C)CN(C(C)C)C2 [Example 195]
# output 6.18
